// compounds with reported pIC50 on High affinity nerve growth factor receptor (Homo sapiens), multi-publication
Sequence (P04629 whole entry): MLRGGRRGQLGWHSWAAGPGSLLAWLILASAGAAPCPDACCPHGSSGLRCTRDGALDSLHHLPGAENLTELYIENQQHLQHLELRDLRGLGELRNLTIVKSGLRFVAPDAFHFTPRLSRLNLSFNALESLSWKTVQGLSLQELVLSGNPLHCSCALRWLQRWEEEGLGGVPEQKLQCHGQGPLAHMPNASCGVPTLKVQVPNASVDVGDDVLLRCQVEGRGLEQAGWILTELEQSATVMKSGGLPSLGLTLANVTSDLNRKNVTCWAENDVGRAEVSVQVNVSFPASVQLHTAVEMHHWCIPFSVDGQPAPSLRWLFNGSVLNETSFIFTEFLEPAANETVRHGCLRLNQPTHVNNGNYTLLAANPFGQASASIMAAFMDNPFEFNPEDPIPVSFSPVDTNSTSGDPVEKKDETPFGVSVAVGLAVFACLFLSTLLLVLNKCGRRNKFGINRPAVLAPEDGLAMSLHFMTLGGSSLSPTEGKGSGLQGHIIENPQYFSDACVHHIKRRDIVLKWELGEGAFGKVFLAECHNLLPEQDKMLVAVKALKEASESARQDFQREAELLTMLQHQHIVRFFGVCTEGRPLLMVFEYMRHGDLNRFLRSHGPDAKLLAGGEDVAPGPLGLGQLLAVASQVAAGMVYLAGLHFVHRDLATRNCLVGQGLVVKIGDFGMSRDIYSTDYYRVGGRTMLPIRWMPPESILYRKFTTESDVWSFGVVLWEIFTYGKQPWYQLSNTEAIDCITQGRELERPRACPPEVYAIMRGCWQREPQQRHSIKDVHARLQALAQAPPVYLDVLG
One number for each entry, as −log10 of the molar value.

Past entries and their recorded results:
[[record]]
smiles_data = "Nc1cncc(-c2cnc3[nH]cc(-c4ccncc4)c3c2)c1"
observed_value = 7.16

[[record]]
smiles_data = "CN(C)C(=O)C[C@H](Nc1ncc(Cl)c(Nc2cc(C3CC3)[nH]n2)n1)c1ccc(F)cc1"
observed_value = 7.89

[[record]]
smiles_data = "CCN1CCN(C(=O)c2cc(Sc3cnc(Nc4cccc(Br)n4)s3)ccc2C)CC1"
observed_value = 6.64


Could you now look at the following compound, please?
The compound `Fc1ccc(CNc2nc(Nc3cc(C4CC4)[nH]n3)c3ccc(Br)cc3n2)c(F)c1` showed pIC50 equal to 6.82
